Assay: Human HepG2 cell viability assay in 384 well format
Type: toxicity, cell-based
Design: dose 125 nL, time 70.5 hour; concentration not given beside the values
Details: HepG2 cells, read-out: Inhibition
Answer each item with its documented cytotoxicity at 70.5 h.
Kindly answer with a numeric value in %, unit omitted.

Sure, the documented cytotoxicity at 70.5 h for COCC1CN(C(=O)Cc2ccccn2)Cc2ncn(C)c21 (configuration not stated) is -2.47

The compound Cc1cc2n(n1)CC(CNCCNC(=O)c1ccc(F)cc1)CN2 (configuration not stated) showed cytotoxicity at 70.5 h equal to -4.35

Reported cytotoxicity at 70.5 h ( `Cc1cc(-c2nccs2)nc(C2CCN(Cc3ccc(F)cc3)CC2)n1` ) = -2

get_value(item= CCn1c(C)nnc1CN(C)C1CCN(Cc2ccon2)C1 (configuration not stated) , readout=cytotoxicity at 70.5 h) returns -1.86

In plain terms, CC(C)c1cc(C(=O)NCC(O)C2CCOCC2)nn1C(C)(C)C (configuration not stated) has a documented cytotoxicity at 70.5 h of 1.71

Lab note: FC1(F)CCNCC12CCN(c1ncccn1)C2 (configuration not stated) gave cytotoxicity at 70.5 h of -4.34

# compound NC(=O)c1cn[nH]c1C1CCCN1C(=O)c1ccccc1 (configuration not stated) ; its cytotoxicity at 70.5 h = -5.37

Lookup result for CC(=O)N(Cc1noc(C)n1)C1CCN(CC(=O)N(C)C2CC2)C1 (configuration not stated) ; measured cytotoxicity at 70.5 h: -2.89

Just so you know, measured cytotoxicity at 70.5 h for `Cc1csc(CN2C[C@@H]3COC[C@]3(COCC(=O)N(C)C)C2)n1` came out at -3.08

Record `O=C(NCCc1nnc[nH]1)Nc1cccc(SC(F)F)c1` . Reported cytotoxicity at 70.5 h: -9.47

The recorded cytotoxicity at 70.5 h for entry `CC[C@H](Cn1ncc2ccccc2c1=O)NC(=O)c1ccccn1` equals -7.7

Form: compound = `CCOC(=O)N(C)CC(=O)NCCc1coc(-c2ccc(C)cc2)n1` ; cytotoxicity at 70.5 h = -8.2

###

Assay: Human HepG2 cell viability assay in 384 well format
Format: toxicity, cell-based
Design: dose 125 nL, time 70.5 hour; concentration not given beside the values
Conditions: HepG2 cells, read-out: Inhibition
metric: cytotoxicity at 70.5 h (%)
Respond numerically; units are % and should not be typed.

Quick note, cytotoxicity at 70.5 h for `N#Cc1ccc(CN2CCN(c3cncc(Cl)n3)CC2=O)cc1` landed at -4.86

Entry `CCS(=O)(=O)c1ccc2c(c1)OCCCO2` — recorded cytotoxicity at 70.5 h = 0.078

Record CN1C(=O)CC(C(=O)O)C12CCN(Cc1ccc(Cl)cc1F)CC2 (stereo not given) . Reported cytotoxicity at 70.5 h: 2.06

Memo: `Cc1n[nH]c(C)c1CCCNCc1cn(CCC(N)=O)c2ccccc12` , reported cytotoxicity at 70.5 h: -3.31

For reference, reported cytotoxicity at 70.5 h for `COCc1ncc(-c2nccn2CCS(C)(=O)=O)cn1` stands at 27.5

Recorded cytotoxicity at 70.5 h (compound `Cc1nn2c(-c3cnn(C)c3)nnc2s1` ): -7.18

The reported value for `CCNC(=O)Nc1c(C)cnn1Cc1cc(F)ccc1F` in terms of cytotoxicity at 70.5 h is -11.6

Reported cytotoxicity at 70.5 h for COc1ccccc1N1CCN(C(=O)CCc2nncn2C)C(C)C1 (stereo not given) was 17.3

For this compound ( Cc1noc(C)c1CCCNC(=O)Nc1cccc([S+](C)[O-])c1 (stereo not given) ), measured cytotoxicity at 70.5 h is -3.63

So, `CCn1c(N)nc2cc(C(=O)NCCc3ccncc3)cnc21` ? Its cytotoxicity at 70.5 h was -13.4

Looking up `Cc1ccc(OCCNc2cccc(C(=O)N3CCOCC3)c2)cc1` , I found its cytotoxicity at 70.5 h recorded as 23.6

compound `COC(=O)c1cccc(S(=O)(=O)Nc2ccc(F)c(C(N)=O)c2)c1` , cytotoxicity at 70.5 h observed: 14.1

For COc1cc(CNCC(O)c2ccc(F)cc2F)cc2c1OCO2 (stereo not given) the compound record lists cytotoxicity at 70.5 h as 4.59

// sample CCN(Cc1ccc2c(c1)OCCO2)C(=O)NC(C)Cn1cccn1 (stereo not given) , its cytotoxicity at 70.5 h was 0.788

Per the record, CC(=O)N1CCC2(CCN(C(=O)c3ccc(Cl)c(C(F)(F)F)c3)C2)C1 (stereo not given) has cytotoxicity at 70.5 h of -11

Input OC(CN1CCC(c2ccn[nH]2)CC1)c1ccc(F)cc1 (stereo not given) . Output cytotoxicity at 70.5 h: 26.4

Summary for this compound, CN(C)S(=O)(=O)N1CCCCCC1c1cc(-c2ccc(F)cc2)no1 (stereo not given) : cytotoxicity at 70.5 h is 1.28

The compound identified as `COC(=O)c1cccc(C(=O)N(C)Cc2cccc(F)c2)c1` registered its cytotoxicity at 70.5 h at 5.14

So, `CC(=O)N1CCOC2(CCN(C(=O)C3CC3)CC2)C1` ? Its cytotoxicity at 70.5 h was -10.3

The reported value for `O=S(=O)(c1c(F)cccc1F)N1CCC(Cn2cccn2)CC1` in terms of cytotoxicity at 70.5 h is -11.8

Looking up Cn1nnc2c1C(COCC1CC1)CN(C(=O)C1=CCCC1)C2 (stereo not given) , I see its cytotoxicity at 70.5 h listed as -9.91

So, `O=c1n(Cc2cccc(F)c2)nc2ncccn12` ? Its cytotoxicity at 70.5 h was 15.8

Sample `COCCNC(=O)N1CCSC2(CCCCC2)C1` ; cytotoxicity at 70.5 h observed: -4.21

Briefly, cytotoxicity at 70.5 h measured for `CC(C)NC(=O)CCNC(=O)c1cc(F)ccc1NS(C)(=O)=O` : 15.1

Lab book: cytotoxicity at 70.5 h of `O=c1[nH]cnc2[nH]c(N3CCNCC3)nc12` noted as -2.26

###

Assign cytotoxicity at 70.5 h to each entry below.
Experiment: Human HepG2 cell viability assay in 384 well format
Type: toxicity, cell-based
Parameters: dose 125 nL, time 70.5 hour; concentration not given beside the values
Conditions: HepG2 cells, read-out: Inhibition
Express it in %; write the number only.

Lab book: cytotoxicity at 70.5 h of `CC(C)c1ccc(OCCC(=O)N2CCC(C(N)=O)CC2)cc1` noted as -4.09

For record CNS(=O)(=O)CCCN1CCN(C(C#N)c2ccccc2)CC1 (stereo not given) the listed cytotoxicity at 70.5 h is -11.2

The molecule O=C1NCCCCC1NS(=O)(=O)N1CCCCC1 (stereo not given) showed cytotoxicity at 70.5 h equal to -10.6

Reported cytotoxicity at 70.5 h for `Cc1ccc(N(Cc2ccco2)C(=O)CC2=NN(C)C(=O)C2)cc1` was -9.83

Given item `CC(C)c1cc(N2CCC[C@H](N)C2)n2nccc2n1` , the value recorded as its cytotoxicity at 70.5 h is -4.66

The recorded cytotoxicity at 70.5 h for `CCC(CC)n1ncc(C(=O)NS(=O)(=O)c2ccsc2)c1C` is 21.2

Form field cytotoxicity at 70.5 h, entry `CCN1C[C@@H]2CN(C(=O)NCc3ccccc3)CCC[C@]2(C(=O)O)C1` : -15.2

// cytotoxicity at 70.5 h lookup, molecule = Fc1ccc(-c2ccc(CNC3CCc4ncnn4C3)o2)cc1 (stereo not given) , result: -9.49

cytotoxicity at 70.5 h recorded for this molecule, `Cc1nc(CN(C)c2nccc(C(F)(F)F)n2)cs1` , is -7.33

For record Cc1cc(CN2CCCC2c2c(C)nn(C)c2Cl)no1 (stereo not given) the listed cytotoxicity at 70.5 h is 4.73

Entry `Cc1cc(=O)n(CCNS(=O)(=O)c2cccc(C(F)(F)F)c2)cn1` , cytotoxicity at 70.5 h reported as -8.24

According to the records, this molecule `CNC(=O)c1cc(C)n(-c2cccc(OC)c2)c1C` displays cytotoxicity at 70.5 h of 11

// field: cytotoxicity at 70.5 h; key: COc1c(CNCC(O)c2ccccc2F)c(C(C)C)nn1C (stereo not given) ; value = 21.4

// recorded cytotoxicity at 70.5 h for `CN1CCN(c2ncccc2N)CC1` : -11.7

Lab note: `Cc1nc(NCCC23CCCN2CCC3)cc(C2CCNCC2)n1` gave cytotoxicity at 70.5 h of -7.1

Just so you know, measured cytotoxicity at 70.5 h for `O=C(Nc1ccccc1)C1=NOC2(CCNCC2)C1` came out at -6.36

The measured cytotoxicity at 70.5 h associated with Cc1nc(C)n(C2CCCN(C(=O)c3ccc(NC4CC4)nc3)C2)n1 (stereo not given) reads -6.49

Just so you know, measured cytotoxicity at 70.5 h for `Cc1ccnc(NCc2cn3nc(C)sc3n2)n1` came out at 1.46

Per the record, `O=C(c1ccno1)N1CCOC[C@H](Oc2ccc(C(F)(F)F)cc2)C1` has cytotoxicity at 70.5 h of -0.658

// COCCCN1CCCCC12CC(=O)N(Cc1ccccn1)C2 (stereo not given) : cytotoxicity at 70.5 h value = -1.98

For `O=C(c1cncs1)N1CCC(Cc2cnc3[nH]ccc3c2)CC1` the molecule record lists cytotoxicity at 70.5 h as 15.3

`CCc1nccn1-c1cccc(C2CCN(C(=O)COC)CC2)n1` has a reported cytotoxicity at 70.5 h of 0.0936

Recorded cytotoxicity at 70.5 h (molecule `CC(C)CCc1cc(C(=O)O)nc2[nH]c(=O)[nH]c(=O)c12` ): -15.5

// recorded cytotoxicity at 70.5 h for `Cc1nc(COC[C@H]2CC[C@H]3NCC[C@H]3O2)cs1` : -6.2

Lab note: c1ccc(Cc2noc(CN3CCCC(Cn4cncn4)C3)n2)cc1 (stereo not given) gave cytotoxicity at 70.5 h of -14.5
